Hello, the source for this data is patent US20190119366A1, in case you need it.

Listed here: items and their measured log10 koff.
Target: T1, recombinant human KAAG1 (Kidney associated antigen 1) (human, UniProt Q9UBP8 1-84)
T1 construct: also called KAAG1 protein
T1 sequence: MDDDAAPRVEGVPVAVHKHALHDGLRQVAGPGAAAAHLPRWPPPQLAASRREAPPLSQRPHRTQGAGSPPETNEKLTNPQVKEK
Experiment: SPR (BioRad ProteOn XPR36): antibody captured on an anti-human IgG Fc surface, KAAG1 injected as analyte, 1:1 Langmuir fit
Lab note - koff converted to log10 from values in s⁻¹.

These solved cases illustrate the format of a correct answer.
INSERT INTO measurements (binder, reported) VALUES
  ('humanized 3A4 antibody Lh2Hh4 (antibody, human IgG1, kappa, V domains shown, Human IgG1/kappa; 10 mouse framework residues retained; also called H4L2) VH: QIQLVQSGAEVKKPGASVKVSCKASGYTFTDDYMSWVKQAPGQGLEWIGDINPYNGDTNYNQKFKGKATLTVDKSTSTAYMELSSLRSEDTAVYYCARDPGAMDYWGQGTLVTVSS VL: DVVMTQTPLSLPVTPGEPASISCRSSQSLLHSNGNTYLEWYLQKPGQSPKLLIYTVSNRFSGVPDRFSGSGSGTDFTLKISRVEAEDVGVYYCFQGSHVPLTFGQGTKLEIKR', -3.33),
  ('humanized 3A4 antibody Lh2Hh1 (antibody, human IgG1, kappa, V domains shown, Human IgG1/kappa) VH: QVQLVQSGAEVKKPGASVKVSCKASGYTFTDDYMSWVRQAPGQGLEWMGDINPYNGDTNYNQKFKGRVTITADTSTSTAYMELSSLRSEDTAVYYCARDPGAMDYWGQGTLVTVSS VL: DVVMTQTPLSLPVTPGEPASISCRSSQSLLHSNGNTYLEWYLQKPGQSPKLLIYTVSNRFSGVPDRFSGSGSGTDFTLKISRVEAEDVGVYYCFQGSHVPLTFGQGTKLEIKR', -2.63),
  ('humanized 3A4 antibody Lh2Hh3 (antibody, human IgG1, kappa, V domains shown, Human IgG1/kappa) VH: QIQLVQSGAEVKKPGASVKVSCKASGYTFTDDYMSWVRQAPGQGLEWIGDINPYNGDTNYNQKFKGRATLTVDKSTSTAYMELSSLRSEDTAVYYCARDPGAMDYWGQGTLVTVSS VL: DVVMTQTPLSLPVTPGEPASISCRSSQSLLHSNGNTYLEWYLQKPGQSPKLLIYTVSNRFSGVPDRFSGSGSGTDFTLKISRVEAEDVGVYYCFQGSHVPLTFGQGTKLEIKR', -2.99);

humanized 3A4 antibody Lh2Hh2 (antibody, human IgG1, kappa, V domains shown, Human IgG1/kappa) VH: QIQLVQSGAEVKKPGASVKVSCKASGYTFTDDYMSWVRQAPGQGLEWMGDINPYNGDTNYNQKFKGRVTITADKSTSTAYMELSSLRSEDTAVYYCARDPGAMDYWGQGTLVTVSS VL: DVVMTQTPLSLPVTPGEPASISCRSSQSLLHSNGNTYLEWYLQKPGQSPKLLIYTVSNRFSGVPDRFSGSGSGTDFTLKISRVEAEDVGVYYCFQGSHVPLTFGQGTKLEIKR has a reported log10 koff of -2.74

The binder identified as humanized 3A4 antibody Lh1Hh1 (antibody, human IgG1, kappa, V domains shown, Human IgG1/kappa; 100% humanized frameworks; also called H1 L1; H1L1) VH: QVQLVQSGAEVKKPGASVKVSCKASGYTFTDDYMSWVRQAPGQGLEWMGDINPYNGDTNYNQKFKGRVTITADTSTSTAYMELSSLRSEDTAVYYCARDPGAMDYWGQGTLVTVSS VL: DIVMTQTPLSLPVTPGEPASISCRSSQSLLHSNGNTYLEWYLQKPGQSPQLLIYTVSNRFSGVPDRFSGSGSGTDFTLKISRVEAEDVGVYYCFQGSHVPLTFGQGTKLEIKR registered its log10 koff at -2.48

Consider chimeric 3A4 anti-KAAG1 antibody (mouse variable regions, human IgG1/kappa constant regions) (antibody, V domains shown, It is treated here as the same molecule; also called LcHc; murine 3A4 (LcHc)) VH: QIQLVQSGPEMVKPGASVKMSCKASGYTFTDDYMSWVKQSHGKSLEWIGDINPYNGDTNYNQKFKGKAILTVDKSSSTAYMQLNSLTSEDSAVYYCARDPGAMDYWGQGTSVTVSS VL: DVVMTQTPLSLAVSLGDQASISCRSSQSLLHSNGNTYLEWYLQKPGQSPKLLIHTVSNRFSGVPDRFSGSGSGTDFTLKISRVEAEDLGVYYCFQGSHVPLTFGAGTRLELKR . Its measured log10 koff is -3.92
